Target: T1, MARV (Musoke strain) GP (Marburg virus (MARV), Musoke strain, UniProt P35253 19-648)
T1 sequence: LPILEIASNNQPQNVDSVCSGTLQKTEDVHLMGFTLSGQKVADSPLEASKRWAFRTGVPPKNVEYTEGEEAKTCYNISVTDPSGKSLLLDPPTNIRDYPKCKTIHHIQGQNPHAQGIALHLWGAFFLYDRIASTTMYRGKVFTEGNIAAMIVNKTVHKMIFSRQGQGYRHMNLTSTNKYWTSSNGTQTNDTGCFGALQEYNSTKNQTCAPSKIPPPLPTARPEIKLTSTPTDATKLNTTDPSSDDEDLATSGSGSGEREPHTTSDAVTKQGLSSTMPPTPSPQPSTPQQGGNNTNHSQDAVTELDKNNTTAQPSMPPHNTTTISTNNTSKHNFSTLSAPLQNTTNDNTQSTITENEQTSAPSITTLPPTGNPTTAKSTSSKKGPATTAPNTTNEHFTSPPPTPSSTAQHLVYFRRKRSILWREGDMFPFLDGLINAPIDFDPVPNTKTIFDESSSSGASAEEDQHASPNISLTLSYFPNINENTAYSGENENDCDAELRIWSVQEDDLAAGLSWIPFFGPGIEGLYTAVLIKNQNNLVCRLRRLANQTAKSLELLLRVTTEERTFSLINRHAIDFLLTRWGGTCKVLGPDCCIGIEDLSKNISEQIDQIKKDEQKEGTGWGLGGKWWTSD
Test: GP ELISA, purified mAb

| BINDER | binding result |
| --- | --- |
| FVM09 (antibody, V domains shown) VH: EVQLVQSGAEVKRPGESLTISCKTSGYSFTDSWVAWVRQMPGKGLEWLGSIYPGDSETKYNPSFQGHVTISADKSVTTTYLKWSSLKASDTATYYCVKGSETWGQGVLVTVSS VL: QLVLTQPASLSASPGASASLTCTFSGGINVAGYNILWYQQKAGSPPRYLLRYKSDSTKDQGSGVPSRFSGSKDASANTGILRISGLQSEDEADYYCAIGHSSGWIFGGGTRLTVL | no binding |
| FVM20 (antibody, V domains shown) VH: EVQLVESGAEVKRPGESLTISCKTSGYSFTGSWISWVRQMPGKGLEWLGSIYPGDSETKYNPSFQGHVTISADKSVTTTYLKWSSLKASDTATYYCVKGSETWGQGVLVTVSS VL: NFMLTQSASLSASPGASASLTCTFSGGINVAGYHIFWYQQNPGSPPRYLLRYKSDSEKDQGSGVPSRFSGSKDASANTGILRISGLQSEDEADYYCAIGHSSGWIFGGGTRLTVL | no binding |
| FVM01P (antibody, V domains shown) VH: QVQLQESGPGLVKPSETLSLTCTVSGASISNYRWNWIRQPPGKGLEWIGEINGYSGSTNYNPSLKSRVTISKDASKNQFSLKLTSVTAADTAVYYCPIIGGFTLEWFDVWGPGVLVTVSS VL: DVVLTQSPSSLSASVGDRVTITCRASQGIRNYLNWYQQKPRKAPKLLIYAASSLQSGVPSRFSGSGSGTEFTLTISSLQAEDFATYYCLQGYRTPFTFGPGTKLDIKR | no binding |
| FVM13 (antibody, V domains shown) VH: EVQLVQSGAEVKRPGESLKISCKTSGYTFTSSWISWVRQMPGKGLEWLGSIYPGDSDTRYNPSFQGHVTISADTSIITTHLQWSSLKASDTATYYCVKGSETWGQGVLVTVSS VL: KPMLTQPTSLSASPGASASLTCTFSGGINVAGYNILWYQQKAGSPPRYLLRYKSDSTKDQGSGVPSRFSGSKDASANTGILRISGLQSEDEADYYCAIGHSSGWIFGGGTRLTVL | no binding |
